molecular target: Sodium-dependent serotonin transporter (Rattus norvegicus); assay: Binding affinity against Serotonin transporter in male Sprague-Dawley rats using [3H]paroxetine ligand
Sequence (P31652 whole entry): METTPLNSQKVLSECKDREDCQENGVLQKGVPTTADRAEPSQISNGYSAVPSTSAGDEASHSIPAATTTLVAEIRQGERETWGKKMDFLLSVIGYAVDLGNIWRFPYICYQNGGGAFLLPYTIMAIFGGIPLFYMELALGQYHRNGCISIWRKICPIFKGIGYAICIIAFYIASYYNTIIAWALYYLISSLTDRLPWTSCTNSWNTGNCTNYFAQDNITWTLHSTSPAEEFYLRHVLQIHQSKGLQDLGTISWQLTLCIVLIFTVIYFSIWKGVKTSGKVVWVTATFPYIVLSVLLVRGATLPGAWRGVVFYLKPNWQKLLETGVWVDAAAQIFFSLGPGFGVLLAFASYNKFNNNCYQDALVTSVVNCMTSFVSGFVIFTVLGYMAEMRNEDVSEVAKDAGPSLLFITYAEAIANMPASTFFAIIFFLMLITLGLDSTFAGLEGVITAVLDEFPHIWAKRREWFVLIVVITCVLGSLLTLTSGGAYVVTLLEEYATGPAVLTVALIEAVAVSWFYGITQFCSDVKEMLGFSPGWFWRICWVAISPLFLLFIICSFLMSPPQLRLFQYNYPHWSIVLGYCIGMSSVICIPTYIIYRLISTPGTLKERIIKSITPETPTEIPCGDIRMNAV
Note to self: use Yes only for Ki readings below 800 nM; a reading exactly at 800 nM still gets No.

C[C@H]1CN(CCCn2c3ccc(Br)cc3c3cc(Br)ccc32)C[C@H](C)N1	No
C[C@H]1CN(CCCN(c2ccccc2)c2ccccc2)C[C@H](C)N1	No
C[C@H]1CN(CCCn2c3ccccc3c3ccccc32)C[C@H](C)N1CCCc1ccccc1	Yes
C[C@H]1CN(CCCn2c3ccccc3c3cc([N+](=O)[O-])ccc32)C[C@H](C)N1	No
C[C@@H]1CN(CCCn2c3ccccc3c3ccccc32)C[C@H](C)N1 [RIMCAZOLE]	No

Input line: Does the reported Ki of C[C@H]1CN(CCCn2c3ccccc3c3cc(N)ccc32)C[C@H](C)N1 stay below 800 nM?
Output line: No

Input line: Determine whether this compound shows Ki lower than 800 nM (ties excluded): C[C@H]1CN(CCCN(c2ccccc2)c2ccccc2)C[C@H](C)N1CCCc1ccccc1
Output line: Yes

Input line: Just wondering, is Ki of C[C@H]1CN(CCCn2c3ccccc3c3ccccc32)C[C@H](C)N1C below 800 nM?
Output line: Yes

* * *

assay: Binding affinity of Sigma opioid receptor type 1 in Guinea pig brain membranes using [3H]pentazocine ligand; assay type: cell membranes, Membrane
log10 of Ki values by entry
The figures below represent log10 of Ki, where Ki is stated in nM.

Sample records with log10 of Ki:
C[C@H]1CN(CCCN(c2ccccc2)c2ccccc2)C[C@H](C)N1	2.14
C[C@H]1CN(CCCn2c3ccccc3c3ccccc32)C[C@H](C)N1C	2.74
C[C@H]1CN(CCCn2c3ccccc3c3ccccc32)C[C@H](C)N1CCCc1ccccc1	2.02
C[C@H]1CN(CCCn2c3ccccc3c3cc([N+](=O)[O-])ccc32)C[C@H](C)N1	2.78

Input line: Can you share its log10 of Ki? I mean this compound: C[C@H]1CN(CCCN(c2ccccc2)c2ccccc2)C[C@H](C)N1CCCc1ccccc1
Output line: 1.99

Input line: Name the reported log10 of Ki value associated with the compound C[C@H]1CN(CCCn2c3ccccc3c3cc(N)ccc32)C[C@H](C)N1
Output line: 3.76

Input line: # query: log10 of Ki of entry C[C@H]1CN(CCCn2c3ccc(Br)cc3c3cc(Br)ccc32)C[C@H](C)N1
Output line: 3.65

* * *

biological target: Norepinephrine transporter (Rattus norvegicus, UniProt Q9WTR4); experiment: The compound was tested for binding affinity nisoxatine ligand
Sequence (Q9WTR4 whole entry): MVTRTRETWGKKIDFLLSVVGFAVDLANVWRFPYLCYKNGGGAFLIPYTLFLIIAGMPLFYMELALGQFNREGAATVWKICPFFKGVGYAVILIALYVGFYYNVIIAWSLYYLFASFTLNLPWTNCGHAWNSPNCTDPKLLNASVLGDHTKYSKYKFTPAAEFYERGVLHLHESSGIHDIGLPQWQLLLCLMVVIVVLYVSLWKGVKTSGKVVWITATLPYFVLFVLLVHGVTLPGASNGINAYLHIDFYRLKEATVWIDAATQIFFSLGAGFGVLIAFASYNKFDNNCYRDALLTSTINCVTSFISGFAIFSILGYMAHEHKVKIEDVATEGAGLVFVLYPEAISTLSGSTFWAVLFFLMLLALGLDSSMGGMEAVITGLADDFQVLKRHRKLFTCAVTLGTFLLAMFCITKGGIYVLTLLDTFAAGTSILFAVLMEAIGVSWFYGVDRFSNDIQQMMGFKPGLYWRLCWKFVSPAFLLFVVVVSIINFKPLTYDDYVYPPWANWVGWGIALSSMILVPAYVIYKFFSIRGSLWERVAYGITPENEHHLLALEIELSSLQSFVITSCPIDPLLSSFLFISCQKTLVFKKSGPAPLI
pKi values by entry
Answer as the number alone; pKi is minus log10 of concentration in mol/L.

C[C@@H]1CN(CCCn2c3ccc(Br)cc3c3cc(Br)cc(Br)c32)C[C@@H](C)N1	5.07

Input line: Which pKi value belongs to C[C@H]1CN(CCCn2c3ccc([N+](=O)[O-])cc3c3cc([N+](=O)[O-])ccc32)C[C@H](C)N1 ?
Output line: 5.44

* * *

target: Sodium-dependent dopamine transporter (Rattus norvegicus); assay: Inhibition of Dopamine uptake in male Sprague-Dawley rats using [3H]DA ligand
Sequence (P23977 whole entry): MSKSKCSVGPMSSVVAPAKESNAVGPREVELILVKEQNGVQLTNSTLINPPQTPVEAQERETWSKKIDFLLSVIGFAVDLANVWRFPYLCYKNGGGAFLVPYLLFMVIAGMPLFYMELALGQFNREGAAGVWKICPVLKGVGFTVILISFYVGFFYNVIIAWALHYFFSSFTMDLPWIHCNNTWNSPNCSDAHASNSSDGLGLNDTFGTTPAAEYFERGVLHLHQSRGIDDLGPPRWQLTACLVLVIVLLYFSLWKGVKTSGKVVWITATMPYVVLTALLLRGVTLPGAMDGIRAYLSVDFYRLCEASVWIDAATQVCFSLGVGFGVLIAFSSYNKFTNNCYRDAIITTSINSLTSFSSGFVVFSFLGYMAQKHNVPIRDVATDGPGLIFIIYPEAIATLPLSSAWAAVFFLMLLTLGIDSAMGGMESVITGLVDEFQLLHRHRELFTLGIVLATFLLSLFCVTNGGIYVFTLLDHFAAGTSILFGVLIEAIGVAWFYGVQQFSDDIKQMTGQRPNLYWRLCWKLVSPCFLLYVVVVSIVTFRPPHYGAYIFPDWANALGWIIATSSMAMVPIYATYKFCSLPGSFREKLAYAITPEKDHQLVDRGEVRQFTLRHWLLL
Result Type: IC50 (µM)
API: value field is a number in µM; no unit string.

Examples with their reported IC50 follow.
Clc1ccccc1N1CCN(CCCn2c3ccccc3c3ccccc32)CC1	2.77
C[C@H]1CN(CCCn2c3ccc([N+](=O)[O-])cc3c3cc([N+](=O)[O-])ccc32)C[C@H](C)N1	3.67
C[C@H]1CN(CCCn2c3ccccc3c3ccccc32)C[C@H](C)N1CCCc1ccccc1	0.639

Input line: Any idea what IC50 was measured for c1ccc(N2CCN(CCCn3c4ccccc4c4ccccc43)CC2)cc1 ?
Output line: 1.82

The origin of these recorded values is ChEMBL document CHEMBL1132454.
